Test system: CCRF-CEM leukemia
Assay: NCI tumour cell line growth inhibition, 48 h
measured_endpoint: GI50

Worked cases, GI50 given:
molecule | GI50
Cc1ccc(N=C[N-]c2ccc(C)cc2)cc1.Cc1ccc(N=C[N-]c2ccc(C)cc2)cc1.O=C([O-])C(F)(F)F.O=C([O-])C(F)(F)F.[OH3+].[OH3+].[Rh+2].[Rh+2] | 23.2 µM
COc1cc(C2C3=C(COC3=O)N(CCO)c3cc4c(cc32)OCCO4)cc(OC)c1OC (stereo not drawn) | 0.176 µM
COc1cccc2cc(N(C)c3nc(C)nc4c3CCC4)ccc12 | < 0.01 µM
Clc1ccc(-c2c3ccc(=[N+]4CCCCC4)cc-3oc3cc(N4CCCCC4)ccc23)cc1 | 0.153 µM
ClCc1ccccc1Cn1cnc2ncnc(Cl)c21 | 1.45 µM

Q: Return reported GI50 for target or system CCRF-CEM leukemia, item CCN(CC)CCCC(C)Nc1cc(-c2cccc(OC(F)(F)F)c2)nc2ccc(N3CCCC3)cc12 (stereo not drawn) .
A: 0.0564 µM

Q: Return reported GI50 for target or system CCRF-CEM leukemia, item c1ccc(OCCC[P+](c2ccccc2)(c2ccccc2)c2ccccc2)cc1 .
A: 1.85 µM

Q: Return reported GI50 for target or system CCRF-CEM leukemia, item CC(C)N(Cc1ccc(CN(C(=O)CCl)C(C)C)cc1)C(=O)CCl .
A: 0.287 µM
